assay: Mouse PK, iv/po in CD1 mice; type: in vivo; settings: female, whole blood, 2.5 mg/kg
Property name: clearance

Entry under review: `Nc1ccc(C#CCN(C(=O)Cc2ncc(C(F)(F)F)cc2C(F)(F)F)c2ccc(F)cc2)nn1` . Reported clearance?
36.8 mL/min/kg

====

assay: in vitro; format: in vitro ADME, canine; conditions: dog, MDCK
Property name: Papp (nm/s)
Value expressed in nm/s; do not type the unit.

Endpoint output: Papp of `Nc1ccc(C#CCN(C(=O)Cc2ncc(C(F)(F)F)cc2C(F)(F)F)c2ccc(F)cc2)nn1` . Value?
62

====

assay: Mouse liver microsomal stability; format: in vitro ADME; details: liver microsomes
Property name: microsomal CLint

Which microsomal CLint is reported for this compound? CN(C(=O)Cc1ccc(C(F)(F)F)cc1C(F)(F)F)c1ccccc1 [Compound 15]
> 555 µL/min/mg

====

target: Pol ε (Homo sapiens, UniProt Q07864); experiment: DNA polymerase selectivity, Pol ε
Sequence (Q07864 whole entry): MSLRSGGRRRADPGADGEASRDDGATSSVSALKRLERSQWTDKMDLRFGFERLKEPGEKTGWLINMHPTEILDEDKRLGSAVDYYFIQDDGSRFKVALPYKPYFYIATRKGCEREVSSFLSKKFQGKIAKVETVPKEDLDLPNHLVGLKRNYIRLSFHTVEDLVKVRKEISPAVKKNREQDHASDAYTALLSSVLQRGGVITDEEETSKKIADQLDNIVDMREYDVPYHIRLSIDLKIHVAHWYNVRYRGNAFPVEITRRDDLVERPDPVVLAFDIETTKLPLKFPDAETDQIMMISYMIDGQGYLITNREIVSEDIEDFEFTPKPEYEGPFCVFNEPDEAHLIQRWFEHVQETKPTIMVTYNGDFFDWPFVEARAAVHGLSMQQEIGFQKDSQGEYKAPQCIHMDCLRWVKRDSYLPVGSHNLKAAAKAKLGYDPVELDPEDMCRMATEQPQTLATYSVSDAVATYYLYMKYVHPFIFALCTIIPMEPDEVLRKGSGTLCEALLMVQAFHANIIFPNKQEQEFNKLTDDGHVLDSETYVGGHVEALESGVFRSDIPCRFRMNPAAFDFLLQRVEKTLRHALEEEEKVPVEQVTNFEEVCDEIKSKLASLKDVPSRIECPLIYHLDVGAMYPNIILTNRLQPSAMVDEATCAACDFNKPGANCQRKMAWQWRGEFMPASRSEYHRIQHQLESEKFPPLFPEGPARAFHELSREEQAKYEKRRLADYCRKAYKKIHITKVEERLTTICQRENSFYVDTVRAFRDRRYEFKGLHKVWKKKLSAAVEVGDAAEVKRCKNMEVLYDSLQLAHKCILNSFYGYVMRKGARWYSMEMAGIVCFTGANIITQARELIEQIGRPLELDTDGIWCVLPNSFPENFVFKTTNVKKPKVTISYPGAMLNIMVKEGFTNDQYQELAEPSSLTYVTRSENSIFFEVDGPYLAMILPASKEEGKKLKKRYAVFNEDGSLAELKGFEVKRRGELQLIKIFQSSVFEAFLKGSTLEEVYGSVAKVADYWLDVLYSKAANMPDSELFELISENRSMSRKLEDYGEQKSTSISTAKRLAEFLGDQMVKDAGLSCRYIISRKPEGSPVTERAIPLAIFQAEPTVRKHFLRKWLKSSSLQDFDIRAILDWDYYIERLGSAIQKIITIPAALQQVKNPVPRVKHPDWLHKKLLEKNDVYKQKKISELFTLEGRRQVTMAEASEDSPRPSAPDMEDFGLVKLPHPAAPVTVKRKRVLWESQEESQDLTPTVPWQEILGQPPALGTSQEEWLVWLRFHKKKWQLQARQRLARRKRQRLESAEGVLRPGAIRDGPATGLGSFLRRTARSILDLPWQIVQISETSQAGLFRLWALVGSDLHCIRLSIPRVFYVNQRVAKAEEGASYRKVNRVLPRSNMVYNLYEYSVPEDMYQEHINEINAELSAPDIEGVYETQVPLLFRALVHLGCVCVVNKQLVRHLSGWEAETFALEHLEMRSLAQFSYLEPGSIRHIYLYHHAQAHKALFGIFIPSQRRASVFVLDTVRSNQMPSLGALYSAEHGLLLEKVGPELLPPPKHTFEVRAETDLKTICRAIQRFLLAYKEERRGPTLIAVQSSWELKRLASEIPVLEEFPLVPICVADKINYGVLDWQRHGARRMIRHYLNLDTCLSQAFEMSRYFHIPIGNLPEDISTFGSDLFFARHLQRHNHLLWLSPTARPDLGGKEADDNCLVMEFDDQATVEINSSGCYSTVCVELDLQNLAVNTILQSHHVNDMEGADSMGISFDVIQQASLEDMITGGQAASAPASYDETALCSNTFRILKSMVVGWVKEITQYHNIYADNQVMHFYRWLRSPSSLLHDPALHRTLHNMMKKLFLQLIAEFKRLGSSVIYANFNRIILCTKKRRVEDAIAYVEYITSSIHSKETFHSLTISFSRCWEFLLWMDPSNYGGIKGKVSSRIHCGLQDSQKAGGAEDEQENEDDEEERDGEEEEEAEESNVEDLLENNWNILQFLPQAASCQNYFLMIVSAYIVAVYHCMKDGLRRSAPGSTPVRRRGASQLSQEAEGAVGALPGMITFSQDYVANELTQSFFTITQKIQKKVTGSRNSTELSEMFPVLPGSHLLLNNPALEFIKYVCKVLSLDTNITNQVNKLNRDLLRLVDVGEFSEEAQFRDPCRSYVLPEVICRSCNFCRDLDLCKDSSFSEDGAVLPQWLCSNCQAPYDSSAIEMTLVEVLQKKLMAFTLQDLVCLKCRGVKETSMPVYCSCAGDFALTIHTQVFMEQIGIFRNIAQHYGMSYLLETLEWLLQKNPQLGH
Property name: IC50

Fill in: IC50 of `Nc1ccc(C#CCN(C(=O)Cc2ncc(C(F)(F)F)cc2C(F)(F)F)c2ccc(F)cc2)nn1` is ___
> 100 µM
